experiment: in vitro; conditions: human, microsomes
Is microsomal CLint at least 70 µL/min/mg? Then met. If not, not met.

The examples below pair each entry with its known result.
structure.string | category
O=C(Nc1nc2ccccc2s1)c1ccccc1 | met
C[C@]12Cc3cnn(-c4ccc(F)cc4)c3C=C1CC[C@@]2(O)CCc1ccc(F)cc1C(N)=O | met
c1ccc(Sc2ccc3ccccc3n2)cc1 | not met
CCOC(=O)Nc1cc2c(c(N)n1)N=C(c1ccccc1)CCN2 | not met
N#Cc1ccc(F)c(-c2cc(C(F)(F)F)ccc2OCC(=O)O)c1 | not met

Next up:
Hi, just wondering whether `Cc1cc2c(C(=O)NC[C@H](C)c3ccccc3)c(O)c(O)cc2c(O)c1-c1c(C)cc2c(C(=O)NC[C@H](C)c3ccccc3)c(O)c(O)cc2c1O` shows microsomal CLint of 70 µL/min/mg or higher. not met

###

Provide the reported hepatocyte CLint of each item.
test: in vitro; details: hepatocytes

molecule | result
Cc1c2c(=O)n(-c3ccccc3Cl)[nH]c2cc(=O)n1Cc1ccccn1 | < 3 µL/min/1e6 cells
Cc1ccc(S(=O)(=O)Nc2c(C(=O)N[C@@H](C)C(C)(C)C)c(C)nn2C2CCOC2)cc1 (some centres undefined) | < 3 µL/min/1e6 cells

// batch mode: one hepatocyte CLint value per listed entry
1. Oc1nc2c(O)ccc(CCNCCOCCCOCCc3ccccc3)c2s1
2. CSCCC(NC(=O)c1ccccc1)c1nc2ccccc2n1Cc1ccc(C#N)cc1 (centres undefined)

> 150 µL/min/1e6 cells
> 150 µL/min/1e6 cells

###

test: physchem; details: pH 7.4 buffer
measurement.name: log10(solubility thermodynamic) (log10 of the value in µM)
Kindly note that the scale is log10 and the underlying solubility thermodynamic is in µM.

Some compounds with recorded log10(solubility thermodynamic):
compound | log10(solubility thermodynamic)
COc1cc(N2CCN(C(C)=O)CC2)ccc1Nc1ncc(C#N)c(-c2cnc3ccccn23)n1 | -0.05
CO[C@]1(c2cc(F)cc(S(=O)(=O)c3ccc(/C(C)=N/O)cc3)c2)CCO[C@@H](C)C1 | 0.67
NC1(c2ccc(-c3nc4ccn5c(=O)[nH]nc5c4cc3-c3ccccc3)cc2)CCC1 [MK-2206] | 0.67
Nc1nc(-c2ccccn2)nc(N)c1Cc1ccccc1F | 2.23
COc1ccc2oc(=O)c(C(C)=O)cc2c1 | 1.69

// batch mode: one log10(solubility thermodynamic) value per listed entry
1. Cn1c(-c2ccccc2C(F)(F)F)nnc1C12CCC(c3noc(-c4ccc(F)cc4)n3)(CC1)CC2
2. COc1cc(OC2CCN(C)CC2)c2c(Nc3ccc(F)c(Cl)c3)ncnc2c1
3. Nc1n[nH]c2nnc(-c3ccccc3)c(-c3ccccc3)c12
4. COc1cc2c(Nc3ncc(CC(=O)Nc4ccccc4)s3)ncnc2cc1OCCCN1CCOCC1
5. CCCCn1c(Cc2cc(OC)c(OC)c(OC)c2)nc2c(N)ncnc21

1. -0.05
2. 0.32
3. 1.20
4. -0.40
5. 1.93

###

experiment: physchem; details: octan-1-ol/water, pH 7.4, LogD7.4
Provide the reported logD of each item.
Give bare numbers.

Some compounds with recorded logD:
compound | measurement.name | quantitative.readout
NC(=O)c1cnc(N[C@H]2CCCNC2)c2cc(-c3ccc(F)c(Cl)c3)sc12 | logD | 2.94
CCN(CC)c1ccc2cc(C(C)=O)c(=O)oc2c1 | logD | 2
O=c1[nH]c2c(O)ccc([C@@H](O)CNCCc3cccc(CNCc4ccccc4F)c3)c2s1 | logD | 0.69

// batch mode: one logD value per listed entry
1. COc1ccc(C=NN=Cc2ccc(OC)c(OC)c2)cc1OC
2. CC(C)c1ncc(NC(=O)OCc2ccccc2)c(=O)n1CC(=O)NC(C(=O)C(F)(F)F)C(C)C (stereo unspecified)
3. O=C1C(=O)c2cc(-c3ccsc3)ccc2-c2ccccc21

1: 3.38; 2: 2.63; 3: 3.1

// batch mode: one logD value per listed entry
1. CN1CCN(C(=O)c2cc3cc(F)ccc3[nH]2)CC1
2. O=c1ccnc2ccccn12

1.97
0.2

// batch mode: one logD value per listed entry
1. OCCO[C@H]1C[C@@H](n2nnc3c(N[C@@H]4C[C@H]4c4ccc(F)c(F)c4)nc(SCCC(F)(F)F)nc32)[C@H](O)[C@@H]1O
2. Cc1cc(NC(=O)Nc2ccc(Cl)cc2)n(-c2ccccc2)n1
3. CCC(c1nc2ncccc2c(=O)n1Cc1ccccc1)N(CCCN)C(=O)c1ccc(C)cc1 (stereo unspecified)
4. COc1cc(C(=O)c2cc(Cl)ccc2N)cc(OC)c1OC
5. CCn1c(=O)c2c(-c3cncn3C)n(Cc3ccnc4ccc(Cl)cc34)nc2n(CC2CC2)c1=O

1: 4.17; 2: 4.15; 3: -0.04; 4: 3.38; 5: 2.87

// batch mode: one logD value per listed entry
1. CC(=O)Nc1ccc(O)cc1OC[C@@H](O)CN1CCC2(CC1)Cc1cc(F)ccc1O2
2. CCCCCCCN(CCc1ccc(OC(C)(C)C(=O)O)cc1)C(=O)Nc1ccc(F)cc1F
3. CCN(CC)CCCNCc1cc(Cl)c2cccnc2c1O
4. COc1cc2c(Nc3ncc(NC(=O)c4ccccc4)cn3)ncnc2cc1OCCCN1CCOCC1
5. N#Cc1ccc2[nH]c(-c3ccc(F)cc3)c(CCCC(=O)NS(N)(=O)=O)c2c1

[2.1, 1.93, 0.72, 2.32, 1.95]

// batch mode: one logD value per listed entry
1. C[C@H](CN(C)C(=O)CO)Oc1cccc2ncnc(Nc3ccc(OCc4ccccn4)c(Cl)c3)c12
2. O=C(NCC12CC3CC(CC(C3)C1)C2)c1cc(-n2ncc(=O)[nH]c2=O)ccc1Cl
3. Cc1cc2n[nH]c(=O)n2c2cc(-c3cccnc3)ccc12
4. COc1ccccc1Nc1cc(Oc2cc(C)c(C)nc2-c2ccccn2)ccn1
5. Cc1nc2ccc(Oc3ccc(F)cc3)cc2c(=O)n1C[C@H]1CCCN(C(C)C)C1
6. c1ccc(-c2ccc3ccccc3n2)cc1

3.22
2.1
2.72
3.37
2.4
4

// batch mode: one logD value per listed entry
1. O=c1c2sccc2n(CC2COc3ccccc3O2)c(=O)n1O (stereo unspecified)
2. O=C(Nc1ccccn1)c1ccccc1
3. N=C(N)c1cc2c(-c3ccccc3)cccc2s1
4. Nc1nccc(-n2ccc3ccccc32)n1
5. CC1(C(=O)NC2CCCCC2)CCC(=O)N1Cc1cccs1 (stereo unspecified)

[1.44, 2.2, 1.27, 2.71, 2.15]

// batch mode: one logD value per listed entry
1. O=C(Nc1ccc(S(=O)(=O)N2CCOCC2)cc1)c1cc(Cl)ccc1NS(=O)(=O)c1ccc(Cl)s1
2. O=C(CC12CC3CC(CC(C3)C1)C2)Nc1cccc2c(=O)n(C(CO)CO)ccc12

1: 3.02; 2: 2.62

###

assay: physchem; settings: octan-1-ol/water, pH 7.4, LogD7.4
measurement.name: logD
One number for each entry.

Some molecules with recorded logD:
molecule | logD
COc1cc(O)cc2occ(-c3ccc(O)cc3)c(=O)c12 | 2
COc1cc2c(Nc3ncc(CC(=O)Nc4cccc(F)c4)s3)ncnc2cc1OCCCN1CCC(CO)CC1 | 2.89
CCO/N=C(\c1ccc(Br)cc1)C1CCN(C2(C)CCN(C(=O)c3c(Cl)cncc3Cl)CC2)CC1 | 4
CC(C)C[C@H](CO)Nc1nc(S[C@@H](C)c2ccccc2)nc2[nH]c(=O)sc12 | 4.3
O=C(Cc1ccc(F)c(C(F)(F)F)c1)Nc1cccc2c(=O)n([C@@H]3CNC[C@H]3O)ccc12 | 1.33

// batch mode: one logD value per listed entry
1. NC1(C(=O)NC(c2ccc(Cl)cc2)C2CC2)CCN(c2ncnc3[nH]ccc23)CC1 (stereo not given)
2. Nc1ccc(S(=O)(=O)Nc2nccs2)cc1
3. Cc1ccc(C(=O)Oc2ccc(C(O)CNC(C)(C)C)cc2OC(=O)c2ccc(C)cc2)cc1 (stereo not given)
4. COc1ncnc(NS(=O)(=O)c2ccc(N)cc2)c1OC
5. CN(C)CCNc1cc(-c2ccccc2)nc2cc(-c3ccc(F)cc3)nn12

1: 3.4; 2: -0.37; 3: 3.57; 4: -0.73; 5: 4.5

###

test: physchem; settings: octan-1-ol/water, pH 7.4, LogD7.4
Is logD at least 3? Then Yes. If not, No.

The examples below pair each entry with its known result.
compound | category
COc1cccc(Nc2ncnc3cc(OC)c(OC)cc23)c1 | Yes
NC(=O)Nc1sc(-c2ccc(F)cc2)cc1C(=O)N[C@H]1CCCNC1 | No
O=C(NC[C@@H](O)CN1CCC(Oc2ccc(Cl)c(Cl)c2)CC1)c1n[nH]c(=O)c2ccccc12 | Yes
CCN(CC)S(=O)(=O)c1ccc(NC(=O)C(C)(O)C(F)(F)F)cc1 (stereo not drawn) | No
Cc1ccc(Oc2ccnc(Nc3ccc(S(N)(=O)=O)cc3)c2)c(C)n1 | No

Hi, just wondering whether `CC1=C(C2=C(C)C(=O)c3c(cc(O)c(O)c3Cc3ccccc3)C2=O)C(=O)c2cc(O)c(O)c(Cc3ccccc3)c2C1=O` shows logD of 3 or higher. No

Hi, just wondering whether `O=C(Nc1nc2ccccc2n1CCN1CCOCC1)c1cccc([N+](=O)[O-])c1` shows logD of 3 or higher. Yes

Hi, just wondering whether c1ccc(OCC2CNCCO2)cc1 (stereo not drawn) shows logD of 3 or higher. No
